experiment: chemical genetic growth profiling, strain panel (AID 1159580);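 note: tested at 20 µM; growth read once vehicle control cultures reached saturation at 30 °C; 1 = growth at the plate median or of vehicle wells; lower values mean less growth of the strain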; conditions: S. cerevisiae deletion strains, growth OD, locus YDL134C, strain PPH21, stronger effect = lower value
The whole screen tested about 5,500 compounds, of which about 2,000 (36%) were called active. Not shown: some 18% with an inconclusive outcome. The list shows a part of the results.
A collection of compounds and their measured normalized growth
QUANTITY_MEASURED: normalized growth

[[record]]
compound = "Cc1cc(C2CCCCC2)n(O)c(=O)c1"
result = 0.0521

[[record]]
compound = "CCOC(=O)c1sc(S(C)(=O)=O)c2c1CCCC2O (configuration not stated)"
result = 1.01

[[record]]
compound = "COc1ccc(CCNc2ccc(C(F)(F)F)cc2N)cc1OC"
result = 1.02

[[record]]
compound = "CC1CC[C@@]2(OC1)O[C@H]1CC3C4CC[C@@H]5C[C@@H](O)CC[C@]5(C)C4CC[C@]3(C)[C@H]1[C@@H]2C (some centres not stated)"
result = 1.03

[[record]]
compound = "O=C1NN=C2C3CC4CC12CC1(C3)C(=O)NN=C41"
result = 1.01

[[record]]
compound = "C[C@@H]1CC[C@@]2(OC1)O[C@H]1CC3C4CC[C@H]5C[C@@H](O)CC[C@]5(C)C4CC[C@]3(C)[C@H]1[C@@H]2C (some centres not stated)"
result = 0.972

[[record]]
compound = "NC(CSCSCC(N)C(=O)O)C(=O)O (configuration not stated)"
result = 0.988

[[record]]
compound = "COc1ccc2c(c1C(C)C)CCC1C(C)(C)C(=O)CCC21C (configuration not stated)"
result = 0.976

[[record]]
compound = "C[C@@H]1CC[C@@]2(OC1)OC1CC3C4CC=C5C[C@@H](O)CC[C@]5(C)C4CC[C@]3(C)C1[C@@H]2C (some centres not stated)"
result = 0.977

[[record]]
compound = "CNC(=O)Oc1cccc2c1OC(C)(C)O2"
result = 1.02

[[record]]
compound = "CCOCN(C(=O)CCl)c1c(C)cccc1CC"
result = 0.995

[[record]]
compound = "CC[n+]1c(-c2ccccc2)c2cc(N)ccc2c2ccc(N)cc21"
result = 0.776

[[record]]
compound = "Cn1c2c(c3c1CCCC3)CCCC2"
result = 1.02

[[record]]
compound = "C/C(=N/NC(=S)Nc1ccc(C(C)C)cc1)c1ccco1"
result = 0.629

[[record]]
compound = "CCc1cccc(CC)c1N(COC)C(=O)CCl"
result = 1.01

[[record]]
compound = "C[N+](C)(C)CC(O)CC(=O)O (configuration not stated)"
result = 1.01

[[record]]
compound = "CCCCCCC(C)OC(=O)COc1ccc(Cl)cc1Cl (configuration not stated)"
result = 1

[[record]]
compound = "CC1CCC2(OC1)OC1CC3C4CC[C@H]5C[C@@H](O)CC[C@]5(C)C4CC(=O)[C@]3(C)C1C2C (some centres not stated)"
result = 1.01

[[record]]
compound = "NC(=O)NCC(N)C(=O)O (configuration not stated)"
result = 1.03

[[record]]
compound = "CCCCC1C(=O)N(c2ccccc2)N(c2ccc(O)cc2)C1=O (configuration not stated)"
result = 0.999

[[record]]
compound = "CC1CC[C@@]2(OC1)O[C@H]1CC3C4CC[C@@H]5CC(=O)CC[C@]5(C)C4CC[C@]3(C)[C@H]1[C@@H]2C (some centres not stated)"
result = 0.982

[[record]]
compound = "C[C@@H]1CC[C@@]2(NC1)O[C@H]1C[C@H]3C4CC=C5C[C@@H](O)CC[C@]5(C)C4CC[C@]3(C)C1[C@@H]2C (some centres not stated)"
result = 0.0628

